Test system: 883617-216-R-J1-PDC tumor spheroids, viability
method: Anticancer human tumor 883617-216-R-J1-PDC patient-derived bladder carcinoma cell line growth inhibition [PI3K]
appliedConditions: curve of first compound; second compound 0.00316 µM; spheroids with HUVEC and MSC
pIC50: −log10 of the molar value.
Reported pIC50 values for the following compounds.

Worked examples follow.
[
  {
    "compound": "CNC(=O)c1ccc(N2C(=S)N(c3ccc(C#N)c(C(F)(F)F)c3)C(=O)C2(C)C)cc1F + COc1c(OCCCN2CCOCC2)ccc2c3n(c(=NC(=O)c4cnc(N)nc4)nc12)CCN3",
    "testedOn": "883617-216-R-J1-PDC tumor spheroids, viability",
    "pIC50": "< 5.00"
  },
  {
    "compound": "CNC(=O)c1ccc(N2C(=S)N(c3ccc(C#N)c(C(F)(F)F)c3)C(=O)C2(C)C)cc1F + CC(Nc1ccc2c(c1)OCCn1cc(N3C(=O)OCC3C(F)F)nc1-2)C(N)=O",
    "testedOn": "883617-216-R-J1-PDC tumor spheroids, viability",
    "pIC50": "< 5.00"
  }
]

In: Item C#Cc1c(F)ccc2cc(O)cc(-c3ncc4c(N5CC6CCC(C5)N6)nc(OCC56CCCN5CC(F)C6)nc4c3F)c12 (stereo not drawn) + COc1c(OCCCN2CCOCC2)ccc2c3n(c(=NC(=O)c4cnc(N)nc4)nc12)CCN3 : provide pIC50
Out: < 5.00

====

Reported viability, T/C values for the following molecules.
Test system: 883617-216-R-J1-PDC tumor spheroids, viability
method: Anticancer human tumor 883617-216-R-J1-PDC cell line growth inhibition [PI3K];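 note: spheroids exposed to agents for 7 days before the viability read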
appliedConditions: second compound 1 µM; first compound 0.0316 µM; stronger effect = lower value; spheroids with HUVEC and MSC
# output: bare number, implied unit %

Worked examples follow.
[
  {
    "molecule": "CCN1CCN(Cc2ccc(Nc3ncc(F)c(-c4cc(F)c5nc(C)n(C(C)C)c5c4)n3)nc2)CC1 + COc1c(OCCCN2CCOCC2)ccc2c3n(c(=NC(=O)c4cnc(N)nc4)nc12)CCN3",
    "viability, T/C (%)": 3.07
  },
  {
    "molecule": "C#Cc1c(F)ccc2cc(O)cc(-c3ncc4c(N5CC6CCC(C5)N6)nc(OCC56CCCN5CC(F)C6)nc4c3F)c12 (configuration not stated) + Cc1nc(NC(=O)N2CCCC2C(N)=O)sc1-c1ccnc(C(C)(C)C(F)(F)F)c1",
    "viability, T/C (%)": 28.2
  }
]

In: Report viability, T/C under test system 883617-216-R-J1-PDC tumor spheroids, viability for C#Cc1c(F)ccc2cc(O)cc(-c3ncc4c(N5CC6CCC(C5)N6)nc(OCC56CCCN5CC(F)C6)nc4c3F)c12 (configuration not stated) + CC(Nc1ncnc2nc[nH]c12)c1cc2cccc(Cl)c2c(=O)n1-c1ccccc1 .
Out: 84.1

In: Report viability, T/C under test system 883617-216-R-J1-PDC tumor spheroids, viability for CC(C)NCC(C(=O)N1CCN(c2ncnc3c2C(C)CC3O)CC1)c1ccc(Cl)cc1 (configuration not stated) + CC(Nc1ncnc2nc[nH]c12)c1cc2cccc(Cl)c2c(=O)n1-c1ccccc1 .
Out: 69.1

In: Report viability, T/C under test system 883617-216-R-J1-PDC tumor spheroids, viability for CC(C)n1nc(-c2ccc3oc(N)nc3c2)c2c(N)ncnc21 + Cc1nc(NC(=O)N2CCCC2C(N)=O)sc1-c1ccnc(C(C)(C)C(F)(F)F)c1 .
Out: 16.4

In: Report viability, T/C under test system 883617-216-R-J1-PDC tumor spheroids, viability for CC1(C)CCC(Nc2ncc(C(F)(F)F)c(-c3c[nH]c4c(P(C)(C)=O)c(C#N)ccc34)n2)CN1 (configuration not stated) + CC(Nc1ncnc2nc[nH]c12)c1cc2cccc(Cl)c2c(=O)n1-c1ccccc1 .
Out: 33.6

In: Report viability, T/C under test system 883617-216-R-J1-PDC tumor spheroids, viability for C=CC(=O)N1CCN(c2nc(=O)n(-c3c(C)ccnc3C(C)C)c3nc(-c4c(O)cccc4F)c(F)cc23)C(C)C1 (configuration not stated) + CC(Nc1ccc2c(c1)OCCn1cc(N3C(=O)OCC3C(F)F)nc1-2)C(N)=O .
Out: 10.3

In: Report viability, T/C under test system 883617-216-R-J1-PDC tumor spheroids, viability for C[C@@H](NC(=O)c1ncnc(N)c1Cl)c1ncc(C(=O)Nc2cc(C(F)(F)F)c(Cl)cn2)s1 + COc1c(OCCCN2CCOCC2)ccc2c3n(c(=NC(=O)c4cnc(N)nc4)nc12)CCN3 .
Out: 5.51

In: Report viability, T/C under test system 883617-216-R-J1-PDC tumor spheroids, viability for CCCS(=O)(=O)Nc1ccc(F)c(C(=O)c2c[nH]c3ncc(-c4ccc(Cl)cc4)cc23)c1F + Cc1nc(NC(=O)N2CCCC2C(N)=O)sc1-c1ccnc(C(C)(C)C(F)(F)F)c1 .
Out: 33.3

In: Report viability, T/C under test system 883617-216-R-J1-PDC tumor spheroids, viability for Cn1ncc(Cl)c1-c1cc(C(=O)NC(CN)Cc2cccc(F)c2)sc1Cl (configuration not stated) + CC(Nc1ccc2c(c1)OCCn1cc(N3C(=O)OCC3C(F)F)nc1-2)C(N)=O .
Out: 13.5

In: Report viability, T/C under test system 883617-216-R-J1-PDC tumor spheroids, viability for CCCS(=O)(=O)Nc1ccc(F)c(C(=O)c2c[nH]c3ncc(-c4ccc(Cl)cc4)cc23)c1F + CC(Nc1ccc2c(c1)OCCn1cc(N3C(=O)OCC3C(F)F)nc1-2)C(N)=O .
Out: 15.2

In: Report viability, T/C under test system 883617-216-R-J1-PDC tumor spheroids, viability for Cn1nccc1Nc1nccc(-c2ccn(C(CO)c3ccc(Cl)c(F)c3)c(=O)c2)n1 (configuration not stated) + COc1c(OCCCN2CCOCC2)ccc2c3n(c(=NC(=O)c4cnc(N)nc4)nc12)CCN3 .
Out: 2.27

In: Report viability, T/C under test system 883617-216-R-J1-PDC tumor spheroids, viability for CNC(=O)c1ccc(N2C(=S)N(c3ccc(C#N)c(C(F)(F)F)c3)C(=O)C2(C)C)cc1F + COc1c(OCCCN2CCOCC2)ccc2c3n(c(=NC(=O)c4cnc(N)nc4)nc12)CCN3 .
Out: 3.25
